Hey, just so you know, these numbers are from patent EP2599480A1.

Listing of entries alongside the reported IC50.
biological target: NA of influenza virus A/PR/8/34 (Influenza A virus); test: biochemical; set-up: species or system H1N1 influenza virus A/Puerto Rico/8/34
Sequence (P03468 whole entry, looked up): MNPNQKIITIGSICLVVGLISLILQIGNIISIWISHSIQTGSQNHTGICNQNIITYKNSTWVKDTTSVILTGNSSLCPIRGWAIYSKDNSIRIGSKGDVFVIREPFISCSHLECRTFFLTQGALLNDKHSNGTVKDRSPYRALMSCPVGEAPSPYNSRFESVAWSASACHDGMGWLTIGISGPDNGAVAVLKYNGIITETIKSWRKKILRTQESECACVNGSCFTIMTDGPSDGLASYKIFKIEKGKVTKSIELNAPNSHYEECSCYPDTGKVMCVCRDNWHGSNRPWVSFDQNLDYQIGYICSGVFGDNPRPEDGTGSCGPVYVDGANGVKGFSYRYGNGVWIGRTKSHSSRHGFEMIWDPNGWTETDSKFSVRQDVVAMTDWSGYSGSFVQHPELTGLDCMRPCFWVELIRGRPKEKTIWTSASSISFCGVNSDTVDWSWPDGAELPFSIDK

> print(dat)
                            compound.smiles  experimental.value
1  Nc1c(N=Nc2ccc(S(=O)(=O)Nc3ccccn3)cc2)cc(S(=O)(=O)O)c2ccccc12            < 120 nM

Next compound, IC50 to be filled in.
Problem: Suppose we examine the compound Cc1cccc(NS(=O)(=O)c2ccc(N=Nc3c(O)c(C(=O)O)cc4ccccc34)cc2)n1 ; what IC50 value has been reported?
Solution: < 120 nM
